Where do these numbers come from? They come from ChEMBL document CHEMBL5390272.

Property: IC50; scope: individual molecules
Experiment: Inhibition of Bordetella pertussis Adenylate cyclase toxin in mouse J774.A1 cells preincubated for 5 hrs followed by ACT addition and measured after 30 mins by CatchPointcAMP immunoassay method
Format: cell-based
quantity.name: IC50 (nM)

>>> obs_value("CC(C)OC(=O)[C@H](Cc1ccccc1)NP(=O)(COCCn1cc(-c2ccccc2)c2c(N)ncnc21)N[C@@H](Cc1ccccc1)C(=O)OC(C)C")
13300
>>> obs_value("COc1ccccc1-c1cn(CCOCP(=O)(N[C@@H](Cc2ccccc2)C(=O)OC(C)C)N[C@@H](Cc2ccccc2)C(=O)OC(C)C)c2ncnc(N)c12")
2170
>>> obs_value("Cc1cn(CCOCP(=O)(O)OP(=O)(O)OP(=O)(O)O)c2ncnc(N)c12")
62
>>> obs_value("CCOC(=O)[C@H](C)NP(=O)(COCCn1cc(-c2ccc(OC)cc2)c2c(N)ncnc21)Oc1ccccc1 (some centres not stated)")
5410
>>> obs_value("Cc1cn(CCOCP(=O)(N[C@@H](Cc2ccccc2)C(=O)OC(C)C)N[C@@H](Cc2ccccc2)C(=O)OC(C)C)c2ncnc(N)c12")
1470
>>> obs_value("COc1ccc(-c2cn(CCOCP(=O)(O)OP(=O)(O)OP(=O)(O)O)c3ncnc(N)c23)cc1")
186
